test: amyloid nucleation score (Sup35N fusion, yeast selection) (log enrichment); library NNK2; higher = more nucleation; inactive = no reads after selection;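 further: zero at mode of non-aggregating sequences after 7 days selection at 30°C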
Hi, to clarify the labels: YES covers amyloid nucleation score from -0.1 upward, NO covers anything below -0.1.

> print(dat)
               substance  group.label
 1  FSYFVFLVKFVTVFTPTIHV           NO
 2     RSLSSPSRKLKLTNLWI           NO
 3        LRMMYRFGVCYVLL          YES
 4  DLTGGVRLRRWGWTSCSGNG          YES
 5              SVLVVPVT          YES
 6  CTVRDSMAGIYLVDLVSCIR           NO
 7            TPTWESNQVL          YES
 8  HDVFVTYTTLLITARLMRRP          YES
 9  ILRCLNLYMRSIMRVELSIQ          YES
10    EHVFMSAHFLLNSQRKKN           NO
11              SLLVDALR          YES
12            WPFPKSRNRS          YES
13   SLAPQMLPCHFSWILDPCC          YES
14  FLLNIDTFSLMRSVTANTLV           NO
15  DRVSVVIAGDQKPEFRRGKR           NO
16  DLRHASVVVNRWILCLLGHI          YES
17  RTHCSMSYQSRVVVDWLLQK          YES
18              HCGMAYFH           NO
19  RNLGIHKSLFNSAYARAWAV           NO
20  YFNSLLPLLSPFYRPNIALL           NO
21        IPFASLNEFTSATY          YES
22  GVPIGKKYRTSVCENMEGSW           NO
23  KWMFEVTVYGRWYVTHQAGL          YES
24           CCFRLLGYAGN           NO
25  VVLTAVHFQCLLTLTVPIEV           NO
26  FEVYKANDIEIYYAVCEMGV           NO
27  NSIAYPACLNKWGWIKFSSY           NO
28               PFDFAGA          YES
29    CYFCWDFLIGCNFTHNAQ          YES
30           YIKASKMPAEA           NO

* * *

experiment: amyloid nucleation score (Sup35N fusion, yeast selection) (log enrichment); library NNK2; higher = more nucleation; inactive = no reads after selection
Label scheme, based on amyloid nucleation score: band A: < -0.5; band B: ≥ -0.5 and < 1; band C: ≥ 1

> print(dat)
          sequence.data  group.label
1  SVYDTKHLLNLLDSAVISNH       band B
2  SLDFAFRFFSICVICGQNAR       band C
3  FEYLYYIDIYLWYCEGRVAK       band A
4  EDVDICRHFYRGVVNNGYQR       band B
5  YAVAEGFVASGYWTAYMPLS       band B
6            KCVSRISSGR       band C
7           QILSRGFAPWT       band A
8  MIHYKYGFPNMGIRTYVSFV       band C
9  ISVDTRFGLNVCFEGCCAYR       band C

* * *

assay: amyloid nucleation score (Sup35N fusion, yeast selection) (log enrichment); library NNK2; higher = more nucleation; inactive = no reads after selection
Measured property: amyloid nucleation score

> print(dat)
               substance    result
 1  SSTKFAHTFVHNKWVYSGFS      2.46
 2               EESGGYC    -0.893
 3  WRVLFQDFRCKINYLGSSSR  inactive
 4              EPNIGSVP    -0.171
 5  VDVHIIIMKPDSWVCPNRCS  inactive
 6  FSGLGDCEVMYVFVNNRLGW    -0.699
 7            YRYKRLSRRV     -1.09
 8  IDLWWSATHVTLLLSAPGIY     -1.09
 9                LKDETN  inactive
10           LCNMHIMRFNM     -1.07
11  HDKLVTRLYWYSKCVVKGLN    -0.375
12  RCSTGRVFSSLDEVLLSRWG      4.64
13  MNIVVYVHLGVSAQVSMAHR      8.41
14               SKHWTCS     0.426
15           SWTCHGGNLYS     0.222
16           WWWPSVWTCRM    -0.716
17  ESTWSFNSLYIDLIKVWSDV    -0.889
18  ICIFIWIDASRACKPNIQCS      5.58

* * *

Below, each of the substances is paired with its reported amyloid nucleation score value.
test: amyloid nucleation score (Sup35N fusion, yeast selection) (log enrichment); library NNK2; higher = more nucleation; inactive = no reads after selection
Measured property: amyloid nucleation score

> print(dat)
               substance  quantitative.result
 1            MVAGDKRDGG                 2.39
 2                KLMVPA                0.248
 3  SYSYFLELVSYKFSVVFLSI                0.715
 4       YFYCRYYMNRWNYYL               -0.396
 5        KYMINAYTAGWIGV                -1.41
 6  VLYVGWFRAKDNIVFLTYGC               -0.158
 7  FCNVKLLLVGWCRVSVKKGV                 2.12
 8  RHMSTVKTLSEGLNLESGLI               -0.519
 9  SRSWTLKFRLGGNVKQYCTW                 5.72
10  LVIRAKYYNPRTWGKFLHPV               -0.381
11  KNLDQYCCCFNALTLSVSRS                 7.47
12  RGVLVEFYGAMENISWSTYW               -0.497
13                STNEWF                -1.06
14  SHFFAQPGNGMRWCVRIKVC                0.744
15  VRRYYDSKSSIAYMLSIRVD               -0.447
16    LGEIVHLTVDASIRSSDR                 5.13
17  VWCAYWKWLNLSRFNEITAR               -0.202
18  VINRMCIVWPYMSSYWEWNV                 9.13
19   RTEMHYARQRHELDVPVWL                 0.25
20  CFDKLAVMACKSSGWHNPPT                 0.75
21                YCYARD               -0.172
22  PWCGRSMYSVSGKGQMWMRA                 1.03
23         FGDYPNSLKWLQE               -0.558
24  TFDRCPNNSGNDMTNGPESW                 1.21
25  FCMADVYSGTLRNNYHTSEV               -0.986
26    PFSFRLSGINSPPVISVA                -1.16
27  SFVVWTPWLSPSYACPRQIF               -0.124
28  DRFQMGCLWGNNEYLLSAMA                -1.97
29  SLLGRRIFWLCHEFMSSSLV                 0.21
30      PKWIPYSRRWPWAYIF                 -1.2
31                QEAALG                 1.27

* * *

Measured amyloid nucleation score values are reported for all entries that follow.
test: amyloid nucleation score (Sup35N fusion, yeast selection) (log enrichment); library NNK2; higher = more nucleation; inactive = no reads after selection
Measured property: amyloid nucleation score

> print(dat)
               substance  quantitative.result
 1  SLLKNPASMCSNSIFCAYVG                 8.71
 2  CNYYFVKYQGINGCGTPVKF                 3.01
 3   LLLASAMWYGKLIRMRLLG                0.659
 4           PFLVLSWDRCN               -0.288
 5          RGWRAGMYFACF                0.656
 6       SYVCRYITVPGFDTN                 4.76
 7  CLITLLIMECKYAVDLWGSV                 1.04
 8  GTMQFIVICNSDVFVSWLPN                 7.25
 9                RCRILA                 2.51
10    ETYWWRQRLNSRLAFNWH                 5.16
11  FKSTNLMAWIFGMYIVFLGF                -0.08
12                TMLTFG               -0.913
13          CYYMCAYRGVAK                0.637
14             FSRCTSVEV               -0.699
15  MTRYDDRFVQNRSSWLDNFD               -0.909
